System: filamentous bacterial cells
Test: Limited search of carbon sources: colony formation of filamentous bacterial cells from a soil suspension on carbon-source agar medium
Conditions: soil suspension smeared on agar medium with the carbon source, 30° C., 5 days; relative value, carbon source-free medium = 100%
Each record here notes measured Filamentous bacterial cells Average number of grown colonies ± standard error.
Please answer using the number first and the unit second.

Consider the worked cases shown below.
Value of measured Filamentous bacterial cells Average number of grown colonies ± standard error for the entry C[C@@H](O)[C@H](N)C(=O)O [Threonine] : 0 ± 0%

Value of measured Filamentous bacterial cells Average number of grown colonies ± standard error for the entry OC[C@@H](O)[C@@H](O)[C@H](O)[C@@H](O)CO [Sorbitol] : 128 ± 2%

Value of measured Filamentous bacterial cells Average number of grown colonies ± standard error for the entry N[C@@H](CO)C(=O)O [Serine] : 131 ± 16%

Continuing:
Value of measured Filamentous bacterial cells Average number of grown colonies ± standard error for the entry N[C@@H](Cc1ccc(O)cc1)C(=O)O [Tyrosine] : 81 ± 39%

Value of measured Filamentous bacterial cells Average number of grown colonies ± standard error for the entry N[C@@H](Cc1c[nH]c2ccccc12)C(=O)O [Tryptophan] : 167 ± 18%

Value of measured Filamentous bacterial cells Average number of grown colonies ± standard error for the entry CC(C)[C@H](N)C(=O)O [Valine] : 19 ± 8%

Value of measured Filamentous bacterial cells Average number of grown colonies ± standard error for the entry OC[C@@H](O)[C@@H](O)[C@H](O)[C@H](O)CO [Mannitol] : 27 ± 17%

====

Test system: filamentous bacterial cells
Test: Limited search of carbon sources: colony formation of filamentous bacterial cells from a soil suspension on carbon-source agar medium
Settings: soil suspension smeared on agar medium with the carbon source, 30° C., 5 days; relative value, carbon source-free medium = 100%
TEST READOUT: Filamentous bacterial cells Average number of grown colonies ± standard error (%)
Could you give me the number in %? Just the number is fine.

Value of measured Filamentous bacterial cells Average number of grown colonies ± standard error for the entry N=C(N)NCCC[C@H](N)C(=O)O : 19

Value of measured Filamentous bacterial cells Average number of grown colonies ± standard error for the entry O=C(CO)[C@@H](O)[C@H](O)[C@H](O)CO : 100

Value of measured Filamentous bacterial cells Average number of grown colonies ± standard error for the entry N[C@@H](Cc1ccccc1)C(=O)O : 47

Value of measured Filamentous bacterial cells Average number of grown colonies ± standard error for the entry N[C@@H](Cc1c[nH]cn1)C(=O)O : 203

Value of measured Filamentous bacterial cells Average number of grown colonies ± standard error for the entry O=C[C@H](O)[C@@H](O)[C@H](O[C@@H]1O[C@H](CO)[C@@H](O)[C@H](O)[C@H]1O)[C@H](O)CO : 42
